Task for the reader: assign each of the following compounds its reported log10 of Ki.
# systemTested: human M3 receptors (Homo sapiens)
# Construct: purchased Receptor Biology; host or cells: CHO-K1 cells transfected with the human receptor (membranes)
# Sequence (P20309 whole entry): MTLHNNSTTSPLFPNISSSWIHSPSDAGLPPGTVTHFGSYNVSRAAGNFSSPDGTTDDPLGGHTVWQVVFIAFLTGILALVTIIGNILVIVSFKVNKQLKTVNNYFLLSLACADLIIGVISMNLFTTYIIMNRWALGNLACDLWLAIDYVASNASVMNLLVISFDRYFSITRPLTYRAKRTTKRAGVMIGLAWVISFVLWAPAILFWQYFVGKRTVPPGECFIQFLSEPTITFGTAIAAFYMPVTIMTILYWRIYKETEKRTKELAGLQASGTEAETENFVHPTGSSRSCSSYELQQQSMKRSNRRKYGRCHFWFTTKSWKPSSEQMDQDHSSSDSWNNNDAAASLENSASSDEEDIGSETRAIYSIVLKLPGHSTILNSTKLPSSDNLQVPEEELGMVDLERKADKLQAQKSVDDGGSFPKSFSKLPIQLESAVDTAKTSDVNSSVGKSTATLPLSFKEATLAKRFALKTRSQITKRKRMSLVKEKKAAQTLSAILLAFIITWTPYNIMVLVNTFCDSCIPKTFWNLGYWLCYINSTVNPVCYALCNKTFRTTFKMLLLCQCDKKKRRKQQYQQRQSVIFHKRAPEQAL
# assay: Binding test to cloned human M3 muscarinic receptor ([3H]-NMS displacement, CHO-K1 membranes)
# conditionParameters: membranes of CHO-K1 cells transfected with human M3; [3H]-NMS; mean of two independent experiments in duplicate; read-out: M3 (human M3 antagonist activity, binding affinity constant Ki)
Friendly reminder: values = log10 of Ki, unit nM.

Exam item: Can you share its log10 of Ki? I mean this compound: O=C(OC1CN2CCC1CC2)N(CC1CCC1)c1ccccc1 (stereo not shown) [Example 55]
Marked response: -0.46

Exam item: Can you share its log10 of Ki? I mean this compound: O=C(OC1CN2CCC1CC2)N(Cc1ccc2c(c1)OCO2)c1ccccc1 (stereo not shown) [Example 52]
Marked response: 0.08

Exam item: Can you share its log10 of Ki? I mean this compound: Cc1cccc(N(Cc2ccccc2C)C(=O)OC2CN3CCC2CC3)c1 (stereo not shown) [Example 38]
Marked response: -0.64

Exam item: Can you share its log10 of Ki? I mean this compound: Cc1cccc(N(CC2CCCC2)C(=O)OC2CN3CCC2CC3)c1 (stereo not shown) [Example 56]
Marked response: -0.12

Exam item: Can you share its log10 of Ki? I mean this compound: O=C(OC1CN2CCC1CC2)N(Cc1ccccc1)c1cccc(Cl)c1 (stereo not shown) [Example 6]
Marked response: -0.68

Exam item: Can you share its log10 of Ki? I mean this compound: Cc1ccccc1N(Cc1cc(F)c(F)cc1F)C(=O)OC1C[N+]2(C)CCC1CC2.[I-] (stereo not shown) [Example 66]
Marked response: 0.67

Exam item: Can you share its log10 of Ki? I mean this compound: O=C(OC1CN2CCC1CC2)N(Cc1ccccc1O)c1ccccc1F (stereo not shown) [Example 45]
Marked response: -0.74

Exam item: Can you share its log10 of Ki? I mean this compound: O=C(OC1CN2CCC1CC2)N(Cc1ccccc1)c1cccc(Br)c1 (stereo not shown) [Example 7]
Marked response: 0.31

Exam item: Can you share its log10 of Ki? I mean this compound: O=C(OC1CN2CCC1CC2)N(CC1CC2C=CC1C2)c1ccccc1 (stereo not shown) [Example 63]
Marked response: -1.22

Exam item: Can you share its log10 of Ki? I mean this compound: O=C(OC1CN2CCC1CC2)N(Cc1ccccc1)c1ccccc1O (stereo not shown) [Example 14]
Marked response: -0.51

Exam item: Can you share its log10 of Ki? I mean this compound: N#Cc1ccc(N(Cc2ccccc2)C(=O)OC2CN3CCC2CC3)cc1 (stereo not shown) [Example 13]
Marked response: 0.63

Exam item: Can you share its log10 of Ki? I mean this compound: O=C(OC1CN2CCC1CC2)N(Cc1ccc(F)cc1)c1cccc(F)c1F (stereo not shown) [Example 18]
Marked response: -0.04

Exam item: Can you share its log10 of Ki? I mean this compound: Cc1cccc(N(Cc2ccccc2)C(=O)OC2CN3CCC2CC3)c1 (stereo not shown) [Example 10]
Marked response: -0.85

Exam item: Can you share its log10 of Ki? I mean this compound: O=C(OC1CN2CCC1CC2)N(Cc1ccc(Cl)cc1Cl)c1ccc(F)cc1F (stereo not shown) [Example 21]
Marked response: 2.02

Exam item: Can you share its log10 of Ki? I mean this compound: C[N+]12CCC(CC1)C(OC(=O)N(Cc1ccccc1)c1ccccc1F)C2.[I-] (stereo not shown) [Example 68]
Marked response: 1.00

Exam item: Can you share its log10 of Ki? I mean this compound: O=C(OC1CN2CCC1CC2)N(CC1CC=CCC1)c1cccc(Cl)c1 (stereo not shown) [Example 61]
Marked response: -0.46

Exam item: Can you share its log10 of Ki? I mean this compound: Cc1cccc(N(Cc2cccc(O)c2)C(=O)OC2CN3CCC2CC3)c1 (stereo not shown) [Example 46]
Marked response: -0.82

Exam item: Can you share its log10 of Ki? I mean this compound: O=C(OC1CN2CCC1CC2)N(Cc1cccc(F)c1)c1cccc(F)c1 (stereo not shown) [Example 17]
Marked response: -1.27

Exam item: Can you share its log10 of Ki? I mean this compound: O=C(OC1CN2CCC1CC2)N1CCc2ccccc2[C@@H]1c1ccccc1 (stereo partly shown) [YM-905, reference compound]
Marked response: 0.24

Values from patent US7115629B2
